Overview of recorded TGI for various compounds
- Test system: SW-620 colon
- test-summary: NCI tumour cell line growth inhibition, 48 h

>  <compound>
CCCCCC1=C2C(c3ccc(OC)cc3)=C(N)C(c3ccc(OC)cc3)=C3NC(=O)C(C=C1)C32 (configuration not stated)

>  <value-measured>
> 100 µM

$$$$
>  <compound>
Nc1c(Br)cc(-c2nc3ccccc3s2)cc1Br

>  <value-measured>
> 100 µM

$$$$
>  <compound>
FC(F)(F)c1ccc(NCc2nc3ccccc3[nH]2)cc1

>  <value-measured>
> 100 µM

$$$$

IN: Entry "COCCOC1=C(Cl)C(=O)c2c(O)ccc(O)c2C1=O" has what TGI?
OUT: 1.4 µM

IN: Entry "CCOC(=O)CC(=O)CSc1c(-c2ccccc2)c(=O)n(-c2ccccc2)c(=S)n1-c1ccccc1" has what TGI?
OUT: > 100 µM

IN: Entry C[N+](C)(C)CCN[N+]1(C)CCCc2ccccc21 (configuration not stated) has what TGI?
OUT: > 100 µM

IN: Entry "N#Cc1c(N)c(C#N)c2c(c1-c1ccc(Cl)cc1)COc1ccc(F)cc1-2" has what TGI?
OUT: > 50 µM

IN: Entry "O=C(Nc1ccccc1)Nc1ccc(Cl)c(Cl)c1" has what TGI?
OUT: > 100 µM

====

- Tested on: UACC-62 melanoma
- test-summary: NCI tumour cell line growth inhibition, 48 h
quantity-kind: TGI (µM)
The reply should contain only the number, in µM.

>  <molecule>
O=C(O)COc1ccc(C(=O)/C(SS/C(C(=O)c2ccc(OCC(=O)O)c(Cl)c2Cl)=C2\C=C(c3ccccc3Cl)SS2)=C2/C=C(c3ccccc3Cl)SS2)c(Cl)c1Cl

>  <TGI (µM)>
69.5

$$$$

# context switch: different molecule, same TGI
IN: Entry COC(=O)NC1C(C)OC(OC2C/C=C(/C)C3C=CC4C(OC5CC(OC6CC(OC7CC(O)C(O)C(C)O7)C(OC7CC(O)C(OC)C(C)O7)C(C)O6)C(O)C(C)O5)C(C)CC(C)C4C3(C)/C(O)=C3\C(=O)OC4(CC(C)C(CO)=CC4/C=C\2C)C3=O)CC1(C)[N+](=O)[O-] (centres undefined) has what TGI?
OUT: 17.8

====

Overview of recorded TGI for various molecules
- Tested on: SR leukemia
- test-summary: NCI tumour cell line growth inhibition, 48 h
The reply should contain only the number, in µM.

>  <molecule>
Cc1[nH]n(-c2ccccc2)c(=O)c1C(N(CCc1ccccc1)C1=NCC(C)S1)(C(F)(F)F)C(F)(F)F (stereo not given)

>  <experimental-target>
SR leukemia

>  <value-measured>
90.4

$$$$

IN: Entry COC(=O)NC1C(C)OC(OC2C/C=C(/C)C3C=CC4C(OC5CC(OC6CC(OC7CC(O)C(O)C(C)O7)C(OC7CC(O)C(OC)C(C)O7)C(C)O6)C(O)C(C)O5)C(C)CC(C)C4C3(C)/C(O)=C3\C(=O)OC4(CC(C)C(CO)=CC4/C=C\2C)C3=O)CC1(C)[N+](=O)[O-] (stereo not given) has what TGI?
OUT: 24.2

====

- Tested on: TK-10 renal
- test-summary: NCI tumour cell line growth inhibition, 48 h
Overview of recorded TGI for various compounds

Some compounds with recorded TGI:
>  <compound>
Cc1ccc(NC(=O)C(=O)CC(=O)c2ccccc2)cc1C

>  <quantity-kind>
TGI

>  <value-measured>
> 100 µM

$$$$
>  <compound>
OCc1ccc(N(Cc2ccc(F)cc2)CC2CCC2)cc1Cl

>  <quantity-kind>
TGI

>  <value-measured>
3.65 µM

$$$$
>  <compound>
COC(=O)c1ccccc1C1=C([N+](=O)[O-])C(c2cccc(Br)c2)C(C#N)=C(N)O1 (stereo unspecified)

>  <quantity-kind>
TGI

>  <value-measured>
> 100 µM

$$$$

IN: Which TGI is reported with TK-10 renal for this entry: "COc1ccc(/C=C2/CN(CCC#N)C/C(=C\c3ccc(OC)cc3)C2=O)cc1" ?
OUT: 7.91 µM

IN: Which TGI is reported with TK-10 renal for this entry: ClCCCCOC1CCCCO1 (stereo unspecified) ?
OUT: > 100 µM

IN: Which TGI is reported with TK-10 renal for this entry: "COC(=O)NC(=O)c1cn(C2CCCCC2)c(=O)[nH]c1=O" ?
OUT: > 100 µM

IN: Which TGI is reported with TK-10 renal for this entry: "CCOC(=O)C1=C(c2ccccc2)N(C(C)=O)Cc2ccccc21" ?
OUT: > 100 µM

IN: Which TGI is reported with TK-10 renal for this entry: "CNN1C(=O)c2c(C)c(C)c(C#N)c(N)c2C1=O" ?
OUT: > 100 µM

IN: Which TGI is reported with TK-10 renal for this entry: "Cc1cc2c(cc1C)C(=O)/C(=C/c1ccccc1C(=O)O)C2" ?
OUT: > 100 µM

IN: Which TGI is reported with TK-10 renal for this entry: "O=c1oc2c/c(=C\c3ccccn3)c(=O)c3cccc1c3-2" ?
OUT: > 100 µM

IN: Which TGI is reported with TK-10 renal for this entry: CCOC(=O)CC(NCc1ccc(N=Cc2nc3ccc(C(F)(F)F)cc3nc2-c2ccccc2)cc1)C(=O)OCC (stereo unspecified) ?
OUT: > 80.6 µM

IN: Which TGI is reported with TK-10 renal for this entry: CCOP(=O)(OCC)C(Nc1cccc(F)c1)c1ccc(N(C)C)cc1 (stereo unspecified) ?
OUT: > 100 µM

IN: Which TGI is reported with TK-10 renal for this entry: "COc1ccc(Nc2nc3ccc(C(F)(F)F)cc3nc2C(=O)O)cc1" ?
OUT: > 100 µM

====

- Test system: MDA-MB-231 breast
- test-summary: NCI tumour cell line growth inhibition, 48 h
quantity-kind: TGI

Some molecules with recorded TGI:
>  <molecule>
O=C(CSc1ncc(-c2ccccc2)n1-c1ccccc1)Nc1ccc(-c2nc3ccccc3s2)cc1

>  <TGI>
> 100 µM

$$$$
>  <molecule>
O=S(=O)(Oc1ccc2ccccc2c1-c1c(OS(=O)(=O)C(F)(F)F)ccc2ccccc12)C(F)(F)F

>  <TGI>
> 100 µM

$$$$
>  <molecule>
O=C1N(CN2CCOCC2)CN(CN2CCOCC2)C(=O)N1Cc1ccc(CN2C(=O)N(CN3CCOCC3)CN(CN3CCOCC3)C2=O)cc1

>  <TGI>
> 100 µM

$$$$
>  <molecule>
CCN1C(=O)N(CC)C2C1NN=c1s/c(=C\c3ccc(OC)cc3)c(=O)n12 (centres undefined)

>  <TGI>
> 39 µM

$$$$
>  <molecule>
COCOc1c(C(OCOC)c2cnc(Sc3ccccc3)n2C)ccc(OC)c1OC (centres undefined)

>  <TGI>
> 100 µM

$$$$

IN: Entry "O=C1/C(=C/c2ccccc2[N+](=O)[O-])COc2ccc(O)c(O)c21" has what TGI?
OUT: 2.68 µM

IN: Entry CC(C)(C)OC(=O)NC(CS(=O)(=O)O)C(=O)O (centres undefined) has what TGI?
OUT: > 100 µM

IN: Entry "O=C1C(Br)=CC2(C=C1Br)CCNc1c(O)c3c4c(c12)=NCCC=4C=N3" has what TGI?
OUT: 0.409 µM

IN: Entry "CCCc1n(Cc2ccc3ccccc3n2)cc[n+]1Cc1ccc2ccccc2n1" has what TGI?
OUT: 8.47 µM

IN: Entry "COc1cc(-c2nn(-c3cccc(NC(=O)CCN4CCN(C)CC4)c3)cc2-c2ccncc2)ccc1Cl" has what TGI?
OUT: 3.66 µM

IN: Entry "CNc1ncnc2c1cnn2CCCCO" has what TGI?
OUT: > 100 µM

IN: Entry CC1(O)COCCCCOc2c(CN)cccc2NC(=O)c2nc(cnc2N)-c2ccc(cc2)S(=O)(=O)C(C)(C)C1 (centres undefined) has what TGI?
OUT: 2.82 µM

IN: Entry "C#Cc1ccc(-n2c(/C=C/c3ccc4ccccc4c3)nc3ncccc3c2=O)cc1" has what TGI?
OUT: > 100 µM

IN: Entry "COc1cc(/C=C/c2ccccn2)cc(OC)c1OC" has what TGI?
OUT: > 10 µM

====

- Test system: NCI-H226 lung
- test-summary: NCI tumour cell line growth inhibition, 48 h
Overview of recorded TGI for various molecules

Some molecules with recorded TGI:
>  <molecule>
O=C1OCCC[C@H]2O[C@@H](COCc3ccccc3)C[C@@H]12

>  <value-measured>
> 100 µM

$$$$
>  <molecule>
COc1c(Br)cc(/C=C(\C#N)c2ccccn2)cc1Br

>  <value-measured>
> 100 µM

$$$$
>  <molecule>
Cc1ccc([N+](=O)[O-])cc1S(=O)(=O)Nc1ccc(C2=NOC(c3ccccc3O)C2)cc1 (stereo not given)

>  <value-measured>
> 100 µM

$$$$
>  <molecule>
O=c1c2cc(S(=O)(=O)Nc3ccc(Cl)cc3Cl)ccc2ncn1NS(=O)(=O)c1cccc2ccccc12

>  <value-measured>
> 100 µM

$$$$

IN: Entry "Cn1ccoc1=Nc1ccc(Cl)c(Cl)c1" has what TGI?
OUT: > 10 µM

Cited source: PubChem BioAssay (NCI)
